Just for reference, patent US20130309233A1 is where these values come from.

# STUDY SYSTEM: EGFR expressed on the surface of cells (A431, A549, MCF7 and other EGFR-expressing cell lines) (human, UniProt P00533 25-1210)
# METHOD NOTES: cell-based or functional assay
READOUT: IC50 (M), inhibition of EGF-stimulated EGFR auto-phosphorylation in A549 cells

BINDER	RESULT
A6-A4 (antibody, V domains shown) VH: QVQLVQSGAEVKKPGSSVKVSCKASGGTFRNHAYSWVRQAPGQGLEWMGWISAYNGYTTYASKLQGRVTMTTDTSTSTAYMELRSLRSDDTAVYYCARVSASYNSDWSLHYYYGMDVWGQGTLVTVSS VL: QSVLTQPPSVSAAPGQEVTISCSGSNSNIENNYVSWYQQLPGTAPKLLIYSNNERPSGIPDRFSGSKSGTSATLGITGLQTGDEADYYCGTFDSSLSAVVFGGGTKLTVL	1.05e-09 M
A6-A1 (antibody, V domains shown) VH: QVQLVQSGAEVKKPGSSVKVSCKASGGTFRNHAWSWVRQAPGQGLEWMGWISAYNGYTHYASKLQGRVTMTTDTSTSTAYMELRSLRSDDTAVYYCARVSAEYAEDWSLHYYYMDVWGQGTLVTVSS VL: QSVLTQPPSVSAAPGQEVTISCSGSNSNIGNNYVSWYQQLPGTAPKLLIYDNNERPSGIPDRFSGSKSGTSATLGITGLQTGDEADYYCSTWDSSLSAVVFGGGTKLTVL	5.1e-10 M
A6-A3 (antibody, V domains shown) VH: QVQLVQSGAEVKKPGSSVKVSCKASGGTFRNHAWSWVRQAPGQGLEWMGWISAYNGYTTYASKLQGRVTMTTDTSTSTAYMELRSLRSDDTAVYYCARVSASYNEDWSLHYYYGMDVWGQGTLVTVSS VL: QSVLTQPPSVSAAPGQEVTISCSGSNSNIEPNYVSWYQQLPGTAPKLLIYSTAERPSGIPDRFSGSKSGTSATLGITGLQTGDEADYYCSTWDSSLSAVVFGGGTKLTVL	1.1e-09 M
A6-A8 (antibody, V domains shown) VH: QVQLVQSGAEVKKPGSSVKVSCKASGGTFRNHAYSWVRQAPGQGLEWMGWISAYNGYTTYAEKLQGRVTMTTDTSTSTAYMELRSLRSDDTAVYYCARVSAEYAEDWSLHYYYGMDVWGQGTLVTVSS VL: QSVLTQPPSVSAAPGQEVTISCSGSNSNIPNNYVSWYQQLPGTAPKLLIYSNSERPSGIPDRFSGSKSGTSATLGITGLQTGDEADYYCSTWDSSLSAALFGGGTKLTVL	6e-10 M
